Target: CUL2 Cullin-2 (Homo sapiens, UniProt Q13617)
Construct: isoTOP-ABPP experiments performed in cell lysates (in vitro); endogenous in cells; host or cells: soluble proteome of human cancer cell lines (MDA-MB-231, Ramos, Jurkat)
Sequence (Q13617 whole entry): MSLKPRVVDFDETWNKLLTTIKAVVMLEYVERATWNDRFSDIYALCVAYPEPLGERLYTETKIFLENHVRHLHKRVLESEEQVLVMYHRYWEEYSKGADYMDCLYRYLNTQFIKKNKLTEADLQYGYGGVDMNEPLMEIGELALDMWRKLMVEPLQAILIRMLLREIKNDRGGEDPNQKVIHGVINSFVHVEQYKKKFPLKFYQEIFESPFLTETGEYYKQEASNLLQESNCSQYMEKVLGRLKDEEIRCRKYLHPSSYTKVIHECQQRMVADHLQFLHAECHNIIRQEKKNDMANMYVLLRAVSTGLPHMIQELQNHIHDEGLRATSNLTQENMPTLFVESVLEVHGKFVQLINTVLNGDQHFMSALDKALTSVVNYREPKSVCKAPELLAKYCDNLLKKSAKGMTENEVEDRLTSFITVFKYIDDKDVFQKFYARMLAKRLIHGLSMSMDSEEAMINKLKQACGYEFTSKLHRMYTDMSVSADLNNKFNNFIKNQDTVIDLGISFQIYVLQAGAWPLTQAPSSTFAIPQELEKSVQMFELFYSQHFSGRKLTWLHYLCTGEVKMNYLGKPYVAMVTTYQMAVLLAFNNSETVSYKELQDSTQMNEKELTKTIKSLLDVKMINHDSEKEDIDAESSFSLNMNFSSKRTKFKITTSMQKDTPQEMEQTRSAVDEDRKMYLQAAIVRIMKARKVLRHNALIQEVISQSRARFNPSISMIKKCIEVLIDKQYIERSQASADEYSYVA
Assay: competitive isoTOP-ABPP
Type: binding
Conditions: Q13617_K489; 50 uM, 231 sol, in vitro
measured-attribute: R value (DMSO/fragment) for probe 1 labeling

COc1cc(CCC(=O)Oc2c(F)c(F)c(F)c(F)c2F)cc(OC)c1OC	0.9
Cn1cc(CC(=O)Oc2c(F)c(F)c(F)c(F)c2F)c2ccccc21	1.0
O=C(CCc1cn(-c2ccccc2)nc1-c1ccccc1)Oc1c(F)c(F)c(F)c(F)c1F	0.8
O=C(Oc1c(F)c(F)c(F)c(F)c1F)c1cc(C(F)(F)F)cc(C(F)(F)F)c1	0.9
O=C(Oc1c(F)c(F)c(F)c(F)c1F)C(c1ccccc1)c1ccccc1 [fragment 20, Pentafluorophenyl 2,2-diphenylacetate]	0.8

---

Molecular target: ABCE1 ATP-binding cassette sub-family E member 1 (Homo sapiens)
Construct: isoTOP-ABPP experiments performed in cell lysates (in vitro); endogenous in cells; host or cells: soluble proteome of human cancer cell lines (MDA-MB-231, Ramos, Jurkat)
Test: competitive isoTOP-ABPP
Conditions: P61221_K478; 50 uM, 231 sol, in vitro
measured-attribute: R value (DMSO/fragment) for probe 1 labeling

COc1cc(CCC(=O)Oc2c(F)c(F)c(F)c(F)c2F)cc(OC)c1OC	1.5
O=C(CCc1cn(-c2ccccc2)nc1-c1ccccc1)Oc1c(F)c(F)c(F)c(F)c1F	1.1
Cn1cc(CC(=O)Oc2c(F)c(F)c(F)c(F)c2F)c2ccccc21	1.6
O=C(Oc1c(F)c(F)c(F)c(F)c1F)C(c1ccccc1)c1ccccc1 [fragment 20, Pentafluorophenyl 2,2-diphenylacetate]	1.2

---

Biological target: ETFA Electron transfer flavoprotein subunit alpha, mitochondrial (Homo sapiens)
Construct: isoTOP-ABPP experiments performed in cell lysates (in vitro); endogenous in cells; host or cells: soluble proteome of human cancer cell lines (MDA-MB-231; Ramos and Jurkat also prepared)
Sequence (P13804 20-333): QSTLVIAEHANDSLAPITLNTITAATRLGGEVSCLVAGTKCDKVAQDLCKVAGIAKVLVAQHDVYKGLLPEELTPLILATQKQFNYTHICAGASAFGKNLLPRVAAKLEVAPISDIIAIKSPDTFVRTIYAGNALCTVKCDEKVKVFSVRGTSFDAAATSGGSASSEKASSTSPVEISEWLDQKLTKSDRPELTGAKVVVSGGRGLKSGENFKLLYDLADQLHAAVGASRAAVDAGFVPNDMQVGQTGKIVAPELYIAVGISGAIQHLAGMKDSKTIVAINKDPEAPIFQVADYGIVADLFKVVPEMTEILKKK
Sequence (P38117 2-255 partner limits assumed): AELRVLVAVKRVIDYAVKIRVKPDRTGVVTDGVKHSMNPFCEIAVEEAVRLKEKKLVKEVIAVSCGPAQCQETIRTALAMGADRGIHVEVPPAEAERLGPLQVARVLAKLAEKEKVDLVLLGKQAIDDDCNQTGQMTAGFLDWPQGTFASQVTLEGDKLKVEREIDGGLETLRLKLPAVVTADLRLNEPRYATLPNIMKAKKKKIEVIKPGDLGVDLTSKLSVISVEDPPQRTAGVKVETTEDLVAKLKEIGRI
Assay: competitive isoTOP-ABPP
Type: binding
Settings: 50 uM_231_sol_in vitro
measured-attribute: isoTOP-ABPP ratio, lysine P13804_K139

NC(=O)c1cc(C(F)(F)F)cc(C(F)(F)F)c1 [fragment 51, reference compound]	1.0
O=C(CCc1ccc2c(c1)OCO2)Oc1ccc([N+](=O)[O-])cc1[N+](=O)[O-] [fragment 45]	1.0
O=C(Oc1c(F)c(F)c(C(F)(F)F)c(F)c1F)c1cc(C(F)(F)F)cc(C(F)(F)F)c1 [fragment 47]	1.1
N#Cc1ccc(C(=O)Oc2ccc([N+](=O)[O-])cc2[N+](=O)[O-])cc1 [fragment 44, 2,4-Dinitrophenyl 4-cyanobenzoate]	0.9
O=C(ON1C(=O)CCC1=O)c1cc(C(F)(F)F)cc(C(F)(F)F)c1 [fragment 46]	0.9
O=C(Oc1c(F)c(F)cc(F)c1F)c1cc(C(F)(F)F)cc(C(F)(F)F)c1 [fragment 48]	0.9

---

Molecular target: GBAS Protein NipSnap homolog 2 (Homo sapiens)
Construct: isoTOP-ABPP experiments performed in cell lysates (in vitro); endogenous in cells; host or cells: MDA-MB-231 soluble lysate
Sequence (O75323 24-286): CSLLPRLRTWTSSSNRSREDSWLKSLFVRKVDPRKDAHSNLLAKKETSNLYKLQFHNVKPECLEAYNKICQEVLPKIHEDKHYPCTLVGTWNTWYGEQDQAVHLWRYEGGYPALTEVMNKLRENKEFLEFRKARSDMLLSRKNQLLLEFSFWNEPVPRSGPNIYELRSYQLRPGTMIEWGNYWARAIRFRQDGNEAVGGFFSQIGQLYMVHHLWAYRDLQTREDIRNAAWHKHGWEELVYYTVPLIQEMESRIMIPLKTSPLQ
Assay: competitive isoTOP-ABPP
Format: binding
Conditions: 50 uM_231_sol_in vitro
measured-attribute: isoTOP-ABPP ratio, lysine O75323_K75

O=C(Oc1c(F)c(F)cc(F)c1F)c1cc(C(F)(F)F)cc(C(F)(F)F)c1 [fragment 48]	0.9
O=C(ON1C(=O)CCC1=O)c1cc(C(F)(F)F)cc(C(F)(F)F)c1 [fragment 46]	0.9
O=C(Oc1c(F)c(F)c(C(F)(F)F)c(F)c1F)c1cc(C(F)(F)F)cc(C(F)(F)F)c1 [fragment 47]	1.0
N#Cc1ccc(C(=O)Oc2ccc([N+](=O)[O-])cc2[N+](=O)[O-])cc1 [fragment 44, 2,4-Dinitrophenyl 4-cyanobenzoate]	1.1
NC(=O)c1cc(C(F)(F)F)cc(C(F)(F)F)c1 [fragment 51, reference compound]	0.9
O=C(CCc1ccc2c(c1)OCO2)Oc1ccc([N+](=O)[O-])cc1[N+](=O)[O-] [fragment 45]	5.0
